# subject-of-test: T1, acetylcholine binding protein from Lymnaea stagnalis (Lymnaea stagnalis, UniProt P58154 20-229)
# T1 construct: also called AChBP; L. stagnalis AChBP
# assay-explanation: radioligand binding
# reported-conditions: both partners purified
readout: pIC50
To interpret pIC50, take it as minus log10 of a concentration measured in moles per litre.

So, HOBDI-BF2–α-CbTx (natural protein) IRCFITPDITSKDCPNGHVCYTKTWCDAFCSIRGKRVDLGCAATCPTVKTGVDIQCCSTDNCNPFPTRKRP ? Its pIC50 was 7.17

Switching to the query record.
So, α-cobratoxin (natural protein) IRCFITPDITSKDCPNGHVCYTKTWCDAFCSIRGKRVDLGCAATCPTVKTGVDIQCCSTDNCNPFPTRKRP ? Its pIC50 was 7.55
